# targetOfAssay: MCL-1 (Homo sapiens (Human), UniProt Q07820, K194A/K197A/R201A)
# Sequence (Q07820 whole entry K194A/K197A/R201A, looked up): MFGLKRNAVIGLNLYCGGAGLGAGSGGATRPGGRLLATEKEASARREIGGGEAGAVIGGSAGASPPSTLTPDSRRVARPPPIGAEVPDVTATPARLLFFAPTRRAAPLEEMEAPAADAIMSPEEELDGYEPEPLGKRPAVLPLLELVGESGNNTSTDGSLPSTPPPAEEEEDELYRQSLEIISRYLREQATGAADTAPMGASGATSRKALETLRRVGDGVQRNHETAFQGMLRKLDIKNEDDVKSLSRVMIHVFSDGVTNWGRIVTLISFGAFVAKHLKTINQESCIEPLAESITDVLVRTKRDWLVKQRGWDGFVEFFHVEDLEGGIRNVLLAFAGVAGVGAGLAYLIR
# testMethodNotes: Protein-compound interaction assay (SPR assay, Assay 8)
# conditionNotes: immobilized MBP-MCL-1, 25° C., geometric mean
measuredAttribute: Kd (nM)

Here are 5 compounds together with their reported answers.
Cc1c2c(nn1C)CN(C)S(=O)(=O)CCCn1c(C(=O)O)c(CCCOc3cccc4cc(F)ccc34)c3ccc(F)c-2c31 (single isomer, unassigned; enantiomer 2) | 5.3
Cc1c2c(nn1C)CN(C)S(=O)(=O)CCCn1c(C(=O)O)c(CCCOc3cccc4ccccc34)c3ccc(Cl)c-2c31 (single isomer, unassigned; enantiomer 1) | 2.4
CCNCC.CCc1c2c(nn1C)C(CCN1CCOCC1)N(C)S(=O)(=O)CCCn1c(C(=O)O)c(CCCOc3cccc4cc(F)ccc34)c3ccc(Cl)c-2c31 (single isomer, unassigned; enantiomer 2) | 0.34
Cc1c2c(nn1C)C(CCN1CCOCC1)N(C)S(=O)(=O)CCCn1c(C(=O)O)c(CCCOc3cccc4ccccc34)c3cccc-2c31 (single isomer, unassigned; enantiomer 2) | 2.8
CCc1c2c(nn1C)CN(C)S(=O)(=O)CCCn1c(C(=O)O)c(CCCOc3cccc4cc(F)ccc34)c3ccc(Cl)c-2c31 (single isomer, unassigned; enantiomer 1) | 4

1. CCc1c2c(nn1C)C(CCC1CCOCC1)N(C)S(=O)(=O)CCCn1c(C(=O)O)c(CCCOc3cccc4cc(F)ccc34)c3ccc(Cl)c-2c31 (single isomer, unassigned; enantiomer 1)
2. CCc1c2c(nn1C)CN(C)S(=O)(=O)CCCn1c(C(=O)O)c(CCCOc3cccc4cc(F)ccc34)c3ccc(F)c-2c31 (single isomer, unassigned; enantiomer 1)
Q: Sort 1 and 2 by Kd descending and give the first. # answer = label of selected item
Ans: 2
(2: 3.6 nM, 1: 1.9 nM)
